- experimental-target: trypsin (Bos taurus)
- Construct: trypsin from bovine pancreas; purchased Sigma-Aldrich T8003; host or cells: bovine pancreas (tissue-derived)
- Sequence (P00760 24-246): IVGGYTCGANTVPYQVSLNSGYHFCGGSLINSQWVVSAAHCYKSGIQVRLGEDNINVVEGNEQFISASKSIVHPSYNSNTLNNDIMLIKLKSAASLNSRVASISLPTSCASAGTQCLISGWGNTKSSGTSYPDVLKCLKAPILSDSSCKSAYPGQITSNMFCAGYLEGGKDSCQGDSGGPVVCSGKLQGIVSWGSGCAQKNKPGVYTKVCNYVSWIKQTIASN
- assay-protocol: In vitro trypsin-mediated prodrug cleavage
- Format: biochemical, bovine
- condition-label: bovine, trypsin from bovine pancreas; 0.761 mM prodrug, Tris pH 8, 37° C.; adjusted to 4815 BAEE U/mL trypsin
assay-metric: half-life at 0.761 mM (min)
API: value field is a number in min; no unit string.

In: # query: half-life at 0.761 mM of entry `COc1ccc2c3c1O[C@H]1C(OC(=O)N(C)[C@@H](CNC(=O)[C@H](CCCNC(=N)N)NC(=O)CNC(C)=O)C(=O)N(C)CC(=O)O)=CC[C@@]4(O)[C@@H](C2)N(C)CC[C@]314`
Out: 11.8
